System: SNB-75
Assay: NCI tumour cell line growth inhibition, 48 h
Activity calls are given as the source filed them. Rule as the data show it: active = GI50 up to about 1.1 µM and inactive = higher.
Labels: TRUE for active, FALSE for inactive

>  <compound>
Cc1cccc2c1c(=O)c1c(O)c3c(cc1n2C)OC(C)(C)C=C3

>  <classLabel>
FALSE

$$$$
>  <compound>
O=C1c2c(O)ccc(O)c2C(=O)c2c(NCCNC(=O)C(O)C(O)C(O)C(O)CO)ccc(NCCNC(=O)C(O)C(O)C(O)C(O)CO)c21 (stereo not drawn)

>  <classLabel>
TRUE

$$$$
>  <compound>
Cc1cc2[nH]c(Cl)c(/C=C3\C(=O)Nc4ccccc43)c2cc1O

>  <classLabel>
FALSE

$$$$

###

Test system: SW-620
Experiment: NCI tumour cell line growth inhibition, 48 h
Activity calls are given as the source filed them. Rule as the data show it: active = GI50 up to about 1.1 µM and inactive = higher.

>  <compound>
C=C1C(=O)O[C@H]2C[C@@]3(COC(C)=O)C=COC=C(COC(=O)C(C)C)C3CC12 (some centres not stated)

>  <GI50>
46.1 µM (inactive)

$$$$
>  <compound>
O=C1/C(=C\c2ccc([N+](=O)[O-])cc2)Sc2scc(-c3ccc(O)c(O)c3)[n+]21

>  <GI50>
3.4 µM (inactive)

$$$$
>  <compound>
CC12CCc3ccccc3C1=NNC(=O)C2 (configuration not stated)

>  <GI50>
> 100 µM (inactive)

$$$$
>  <compound>
O=C(/C=C/c1ccc2c(c1)OCO2)c1ccc(O)cc1

>  <GI50>
12.1 µM (inactive)

$$$$
>  <compound>
CSc1nc(NC(C)C)c2c(n1)Sc1nc3ccccc3n1C2O (configuration not stated)

>  <GI50>
2.27 µM (inactive)

$$$$
>  <compound>
Nc1nc(NCC2(CO)CCC2)cc(=O)[nH]1

>  <GI50>
> 100 µM (inactive)

$$$$
>  <compound>
Cc1ccc(C)c(COCCOCn2c(=O)[nH]c(=O)c3cc(Br)ccc32)c1

>  <GI50>
> 100 µM (inactive)

$$$$

###

Dear all, this message contains GI50 results, target or system HCT-15.

>  <molecule>
C=C(C)COC1CCCCO1 (stereo not drawn)

>  <GI50>
> 100 µM

$$$$
>  <molecule>
Cc1ccc(C2c3c(n(C)c(=O)n(C)c3=O)OC(N(C)C)(N(C)C)C2(F)F)cc1 (stereo not drawn)

>  <GI50>
> 100 µM

$$$$
>  <molecule>
CCCCCC1C2C(=O)NC(=O)C1C(=O)NC2=O (stereo not drawn)

>  <GI50>
> 100 µM

$$$$
>  <molecule>
O=c1oc2ccccc2cc1-c1cn2ccccc2n1

>  <GI50>
16.7 µM

$$$$
>  <molecule>
Cc1ccccc1OC(C)C(=O)NN1C(=O)CC(=O)N(c2ccccc2)C1=S (stereo not drawn)

>  <GI50>
51.3 µM

$$$$
>  <molecule>
O=C(O)CCn1cnc2c(S)ncnc21

>  <GI50>
> 100 µM

$$$$
>  <molecule>
CC1(C)[C@@H](Cn2cnc3c(O)nc(N)nc32)CC[C@@]1(C)CO

>  <GI50>
> 100 µM

$$$$
>  <molecule>
O=S(=O)(O)c1ccc(NN(c2c(O)ccc3ccccc23)S(=O)(=O)O)cc1

>  <GI50>
> 100 µM

$$$$
>  <molecule>
COC(=O)/C=C\c1ccc2c(c1)CC1(C2)Cc2ccc(/C=C/C(=O)OC)cc2C1 (stereo not drawn)

>  <GI50>
> 31.6 µM

$$$$
>  <molecule>
O/N=N/c1cnccn1

>  <GI50>
> 1080 µM

$$$$
>  <molecule>
C/C(=N\NC(=S)Nc1ccc([N+](=O)[O-])cc1S(=O)(=O)O)c1ccccn1

>  <GI50>
37.6 µM

$$$$
>  <molecule>
CC12CCC(C(=O)N3CC=CCC3)(OC1=O)C2(C)C (stereo not drawn)

>  <GI50>
> 100 µM

$$$$
>  <molecule>
N=C(/C=C/c1ccc(-c2cn3cc(/C=C/C(=N)N4CCCC4)ccc3n2)cc1)N1CCCC1

>  <GI50>
> 100 µM

$$$$
>  <molecule>
COc1ccc(-c2cc(=O)c3c(O)c(OC)c(OC)c(OC)c3o2)cc1OC [5-DEMETHYLNOBILETIN]

>  <GI50>
> 100 µM

$$$$
>  <molecule>
O=C1c2cccnc2C(=O)c2c1nc1ccccc1c2-c1ccc2c3c(nc4ccccc42)C(=O)c2cccnc2-c13

>  <GI50>
0.195 µM

$$$$
>  <molecule>
COC1=CC2(C=CC1=O)c1cc(OC)c(OC)cc1CCN2C(=O)c1ccccc1 (stereo not drawn)

>  <GI50>
> 100 µM

$$$$
>  <molecule>
O=C(/C=N/c1ccccc1C(=O)[O-])c1cccs1.O=C(/C=N/c1ccccc1C(=O)[O-])c1cccs1.[Zn+2]

>  <GI50>
> 100 µM

$$$$
>  <molecule>
CSC(Cc1ccc2c(c1)Sc1ccccc1O2)=[N+]1CCOCC1

>  <GI50>
43.5 µM

$$$$
>  <molecule>
CCOC(=O)/C(=C\c1cccs1)P(=O)(OCC)OCC

>  <GI50>
17.5 µM

$$$$
>  <molecule>
NCC1OC(n2cnc3c(N)ncnc32)CC1O (stereo not drawn)

>  <GI50>
> 100 µM

$$$$
>  <molecule>
CC(C)NC(=O)CCN(C(=O)O)S(=O)(=O)c1ccc(NC(=O)c2ccccc2)cc1

>  <GI50>
> 42.2 µM

$$$$
>  <molecule>
O=C1Nc2ccccc2/C1=C1/Nc2ccccc2/C1=N/OCCOCCO

>  <GI50>
0.664 µM

$$$$
>  <molecule>
CC1=NN(C(=O)c2ccc(Cl)cc2)C(=O)/C1=C/c1ccc(O)cc1

>  <GI50>
> 100 µM

$$$$
>  <molecule>
Cc1ccc2c(c1)C(c1cccc3ccccc13)OC2=O (stereo not drawn)

>  <GI50>
> 100 µM

$$$$
>  <molecule>
C#CC(O)Cc1ccc(OC)c2occc12 (stereo not drawn)

>  <GI50>
> 100 µM

$$$$
>  <molecule>
Fc1cccc(F)c1C1SCc2nc3ccccc3n21 (stereo not drawn) [THIAZOLOBENZIMIDAZOLE]

>  <GI50>
54.5 µM

$$$$
>  <molecule>
N#Cc1c(NC(=O)C(F)(F)F)sc2c3c(=O)c4ccccc4c(=O)c=3oc3ccccc3c12

>  <GI50>
13.1 µM

$$$$
>  <molecule>
CC(=O)N1NC(c2ccccc2)=CC(=O)/C1=C/C(=O)c1ccccc1

>  <GI50>
70.8 µM

$$$$
>  <molecule>
CS(=O)(=O)NNS(=O)(=O)c1ccc(Cl)cc1

>  <GI50>
> 100 µM

$$$$
>  <molecule>
Cc1ccc(C(=O)/C=C2/Nc3ccccc3NC2=O)c(C)c1

>  <GI50>
64.3 µM

$$$$
>  <molecule>
CO/C=C(/C(=O)OC)c1ccccc1Oc1c(F)c(F)c(F)c(F)c1F

>  <GI50>
54.2 µM

$$$$
>  <molecule>
CCOP(=O)(OCC)/C(C#N)=C/c1ccco1

>  <GI50>
> 100 µM

$$$$
>  <molecule>
CCCCCC/C=C/C#CCCCCCCCC(=O)O

>  <GI50>
> 100 µM

$$$$
>  <molecule>
CC#Cc1cc2c(cc1O)CC[C@@H]1[C@@H]2CC[C@]2(C)[C@@H](O)CC[C@@H]12

>  <GI50>
0.34 µM

$$$$
>  <molecule>
CC1CN(c2cc3c(cc2F)c(=O)c(C(=O)O)cn3-c2ccc(F)cn2)CC(C)N1 (stereo not drawn)

>  <GI50>
> 100 µM

$$$$
>  <molecule>
COc1cc(OC)cc(Oc2nc3c(N)cc(C(F)(F)F)cc3nc2-c2ccccc2)c1

>  <GI50>
18.1 µM

$$$$
>  <molecule>
CC#N.O[C@@H]1CCCC[C@@H]1O.O[C@@H]1CCCC[C@@H]1O.[TeH2]

>  <GI50>
18.8 µM

$$$$
>  <molecule>
NNC(=O)CC(=O)Nc1ccc(S(=O)(=O)c2ccc(NC(=O)CC(=O)NN)cc2)cc1

>  <GI50>
> 100 µM

$$$$
